// provenance: BigSolDB 2.1

Settings: in ethyl acetate, 328.15 K
MEASURED ATTRIBUTE: solubility (mole fraction)
Could you respond with only the numeric value?

Short answer for O=C(/C=C/c1cn(-c2ccccc2)nc1-c1ccccc1)c1nc2ccccc2[nH]1 : solubility (mole fraction) was 0.000463

Short answer for COc1cccc(-c2nn(-c3ccccc3)cc2/C=C/C(=O)c2nc3ccccc3[nH]2)c1 : solubility (mole fraction) was 0.000365

Short answer for O=C(/C=C/c1cn(-c2ccccc2)nc1-c1cccc([N+](=O)[O-])c1)c1nc2ccccc2[nH]1 : solubility (mole fraction) was 0.00277

Short answer for COc1ccc(-c2nn(-c3ccccc3)cc2/C=C/C(=O)c2nc3ccccc3[nH]2)cc1 : solubility (mole fraction) was 0.000935

Short answer for O=C(/C=C/c1cn(-c2ccccc2)nc1-c1ccccc1Cl)c1nc2ccccc2[nH]1 : solubility (mole fraction) was 0.00157

Short answer for COc1ccc(-c2nn(-c3ccccc3)cc2/C=C/C(=O)c2nc3ccccc3[nH]2)cc1OC : solubility (mole fraction) was 0.000629

Short answer for O=C(/C=C/c1cn(-c2ccccc2)nc1-c1ccc(Cl)cc1)c1nc2ccccc2[nH]1 : solubility (mole fraction) was 0.000526
